Data provenance is PubChem BioAssay (NCI).

Quick reference for growth among some compounds
system: NCI-H522 lung; assay: NCI-60 one-dose screen, 48 h (100 = growth as untreated, 0 = no growth, -100 = all killed); conditions: 10 µM unless noted
The panel holds about 83,000 compounds, 20% with a hit somewhere; the sample as a whole holds those more often. Calls of active or inactive are those of the source. How the source made its calls: active means growth percent below 10; inactive means the rest.
PROPERTY_LABEL: growth

- COMPOUND: "COCC(=O)NC/C=C/c1ccc2ncnc(Nc3ccc(Oc4ccc(C)nc4)c(C)c3)c2c1"
  RESULT: "14.8% (inactive)"
- COMPOUND: "COc1ccc(-c2nc(N)ncc2Oc2ccccc2OC)c(O)c1"
  RESULT: "28.7% (inactive)"
- COMPOUND: "C1=C\\COCc2cc(ccc2OCCN2CCCC2)Nc2nccc(n2)-c2cccc(c2)COC/1"
  RESULT: "-58.1% (active)"
- COMPOUND: "CO[C@H]1C[C@@H]2CC[C@@H](C)[C@@](O)(O2)C(=O)C(=O)N2CCCC[C@H]2C(=O)O[C@H]([C@H](C)C[C@@H]2CC[C@@H](OCCO)[C@H](OC)C2)CC(=O)[C@H](C)/C=C(\\C)[C@@H](O)[C@H](OC)C(=O)[C@H](C)C[C@H](C)\\C=C/C=C/C=C/1C"
  RESULT: "48.7% (inactive)"
- COMPOUND: "CC1(O)CCC(Nc2cc(-c3ccc(C(F)(F)F)cc3)c(C#N)c3nc4ccccc4n23)CC1 (stereo not drawn)"
  RESULT: "63.2% (inactive)"
- COMPOUND: "CCCCN1CCCC[C@@H]1C(=O)N[C@H](C(=O)N(C)[C@H](CCc1nc(C(=O)N[C@@H](Cc2ccccc2)C[C@H](C)C(=O)OC)cs1)C(C)C)C(C)C"
  RESULT: "49.6% (inactive)"
- COMPOUND: "C=C1[C@@H](O)C[C@H]2C(C)(C)C[C@H](Cl)C[C@]2(C)[C@H]1C[C@H](O)[C@H]1CC(=O)NC1=O"
  RESULT: "-36.8% (active)"
- COMPOUND: "Cc1cccc(NC(=O)[C@@H]2c3ccccc3C(=O)N(c3ccc(Cl)cc3)[C@H]2c2ccc(Cl)cc2)n1"
  RESULT: "38.7% (inactive)"
